The values you see were collected from BindingDB's records for doi:10.1021/jm00095a009.

The compounds listed here are annotated with their pIC50.
Molecular target: Phospholipase A2 (Crotalus adamanteus)
Assay: Inhibitory activity against phospholipase A2 of Croatalus adamanteus
pIC50: −log10 of the molar value.

// solved cases for pIC50 follow
Measured pIC50, Cc1ccc(C(O)(Cn2ccnc2)c2ccc(-c3ccncc3)cc2)cc1 (stereo not drawn) : < 3.00

response.value for Oc1c(Cc2ccccc2)ccc2ccccc12 (field: pIC50) = < 3.00

Could you now consider this next compound?
Record summary for OC(Cn1ccnc1)(c1ccc(F)cc1)c1ccc(-c2ccncc2)cc1 (stereo not drawn) : reported pIC50 = < 3.00
